All values here come from patent US12384800B2.

Catalogue of CC50 values
Test system: A549 cells (lung carcinoma, NSCLC)
Assay: cells
Settings: read-out: LC50; A549; 50% net cell killing; 72 hours; SRB

| COMPOUND | UNITS_TEXT | QUALIFIER | CC50 |
| --- | --- | --- | --- |
| COc1c(C)cc2c(c1O)[C@@H]1[C@@H]3[C@@H]4SC[C@]5(N[C@H](CO)Cc6c5oc5ccccc65)C(=O)OC[C@@H](c5c6c(c(C)c(OC(C)=O)c54)OCO6)N3[C@@H](C#N)[C@H](C2)N1C [Compound 38-S] | nM | = | 9.44 |
| C=CCOC(=O)NC[C@H]1Cc2c([nH]c3ccc(OC)cc23)[C@@]2(CS[C@@H]3c4c(OC(C)=O)c(C)c5c(c4[C@H](COC2=O)N2[C@@H]3[C@H]3c4c(cc(C)c(OC)c4O)C[C@@H]([C@@H]2C#N)N3C)OCO5)N1 [Compound 25-R] | nM | = | 9.92 |
| COc1c(C)cc2c(c1O)[C@@H]1[C@@H]3[C@@H]4SC[C@]5(N[C@@H](C)Cc6c5[nH]c5ccccc65)C(=O)OC[C@@H](c5c6c(c(C)c(OC(C)=O)c54)OCO6)N3[C@@H](C#N)[C@H](C2)N1C [B, reference compound] | nM | > | 129 |
